# System: PC-3 prostate
# protocol.notes: NCI tumour cell line growth inhibition, 48 h
Consider the following compounds and their measured GI50 readings.

Some entries whose results are on file:
                                   compound  recorded_measurement
0     Cc1cn2c(/C=N/N=C(N)N)c(-c3cccs3)nc2s1               2.99 µM
1  CN1C(=O)N[C@H]2[C@@H]3NC(=O)c4ccc(Br)n4[C@@H]3C[C@]21O              0.475 µM
2  Cc1cc(CC(C)CC(C)(C)C)n(O)c(=O)c1 (stereo unspecified) (tested in a mixture with another compound)              0.601 µM

Please find the next compound below.
Query block: Give GI50 only, for N#CCN/C=C\C(=O)c1ccc(Cl)cc1 , using PC-3 prostate data.
Result block: 29.5 µM

* * *

# System: OVCAR-8 ovarian
# protocol.notes: NCI tumour cell line growth inhibition, 48 h
Consider the following compounds and their measured TGI readings.

Query block: Give TGI only, for COC(=O)C1[C@H](c2cc(OC)c(OC)c(OC)c2)OC(=O)C1(C(=O)OC)C(=O)c1ccc2c(c1)OCO2 (stereo not given in full) , using OVCAR-8 ovarian data.
Result block: > 100 µM

Query block: Give TGI only, for O=C(/C=C/c1ccccc1)n1c(-c2ccc(Cl)cc2)nc2ccccc21 , using OVCAR-8 ovarian data.
Result block: 10.3 µM

Query block: Give TGI only, for O=C(O)/C(Cc1ccc([N+](=O)[O-])cc1)=N\O , using OVCAR-8 ovarian data.
Result block: > 100 µM

Query block: Give TGI only, for C=C[C@@]1(O)CCCC2=C(C(=O)OCC)CC[C@]21C , using OVCAR-8 ovarian data.
Result block: > 100 µM

Query block: Give TGI only, for O=C(N/N=C1/C(=O)c2c3ccccc3cc3cccc1c23)c1ccccc1 , using OVCAR-8 ovarian data.
Result block: > 92.3 µM

* * *

Consider the following compounds and their measured TGI readings.
# Test system: CAKI-1 renal
# protocol.notes: NCI tumour cell line growth inhibition, 48 h
Quick reminder: number only, in µM, skip the unit.

Some entries whose results are on file:
In [3]: df
Out[3]:
                                   compound  recorded_measurement
0  O=C(Nc1ccc(-n2ccc3c(NC(=O)c4ccccc4)ncnc32)cc1)Nc1cccc(Cl)c1Cl                  24.9
1              CN(C)c1nc(=Nc2cccc(Cl)c2)ss1                  33.4
2  COc1ccc(C(=O)c2cc3c(N)c(C(=O)Nc4ccc(C)cc4)sc3nc2C)cc1                  20.4
3  C=C1CCC2C(C)(COC(=O)CC)C(OC(=O)CC)CCC2(C)C1C/C=C1/C(=O)OCC1OC(=O)CC (stereo unspecified)                  3.37

Please find the next compound below.
Query block: Fill in TGI for record O=C1OC(O)C(Oc2c(Cl)cccc2Cl)=C1Cl (stereo unspecified)
Result block: 48

* * *

# Test system: BT-549 breast
# protocol.notes: NCI tumour cell line growth inhibition, 48 h
quantity.name: TGI (µM)
Quick reminder: number only, in µM, skip the unit.

Some entries whose results are on file:
molecule	target.or.test.system	TGI [µM]
O=C(/C=C/c1ccccc1)n1c(-c2ccc(Cl)cc2)nc2ccccc21	BT-549 breast	3.22
O=C(OCc1ncc(-c2ccc(C(F)(F)F)cc2)c(NC2CCCCCC2)n1)c1c(F)c(F)c(F)c(F)c1F	BT-549 breast	27.1
CCN(CC)CCCC(C)N=C(C1=C(C(=NC(C)CCCN(CC)CC)c2cccc(OC)c2)C(=O)NC1=O)c1cccc(OC)c1 (stereo not given)	BT-549 breast	8.44
CCCCCCCCCCCCCCCC(=O)N(CCCCCCCCCCC(=O)O)CC(O)C(O)C(OC1OC(CO)C(O)C(O)C1O)C(O)CO (stereo not given)	BT-549 breast	68
Cc1cc(CC(C)CC(C)(C)C)n(O)c(=O)c1 (stereo not given) (tested in a mixture with another compound)	BT-549 breast	3.25
Cc1cn([C@@H]2O[C@H](CO[Si](C)(C)C(C)(C)C)[C@]3(O[C@H]3C(=O)NN)[C@H]2O[Si](C)(C)C(C)(C)C)c(=O)[nH]c1=O	BT-549 breast	13.9
Cc1ccc(N(CC(=O)Nc2ccc(S(=O)(=O)N3CCC(N4CCCC4)CC3)cc2)S(=O)(=O)c2ccc(Cl)cc2)cc1	BT-549 breast	3.31
CC(C)(C)[Si](C)(C)OC1[C@@H](O[Si](C)(C)C(C)(C)C)[C@@H](CNC(=O)NC(=O)CCl)O[C@H]1n1cnc2c(NC(=O)Nc3ccccc3)ncnc21 (stereo not given in full)	BT-549 breast	1.79

Please find the next molecule below.
Query block: Fill in TGI for record COc1ccc2nc3cc([N+](=O)[O-])ccc3c(NCCCN(C)C)c2c1
Result block: 5.26
